The values you see were collected from ChEMBL document CHEMBL1961873.

Target Or Test System: Insulin receptor (Homo sapiens) (UniProt P06213);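 also: reported values are averages of replicate inhibition measurements against the insulin receptor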
Sequence (P06213 28-758 limits assumed): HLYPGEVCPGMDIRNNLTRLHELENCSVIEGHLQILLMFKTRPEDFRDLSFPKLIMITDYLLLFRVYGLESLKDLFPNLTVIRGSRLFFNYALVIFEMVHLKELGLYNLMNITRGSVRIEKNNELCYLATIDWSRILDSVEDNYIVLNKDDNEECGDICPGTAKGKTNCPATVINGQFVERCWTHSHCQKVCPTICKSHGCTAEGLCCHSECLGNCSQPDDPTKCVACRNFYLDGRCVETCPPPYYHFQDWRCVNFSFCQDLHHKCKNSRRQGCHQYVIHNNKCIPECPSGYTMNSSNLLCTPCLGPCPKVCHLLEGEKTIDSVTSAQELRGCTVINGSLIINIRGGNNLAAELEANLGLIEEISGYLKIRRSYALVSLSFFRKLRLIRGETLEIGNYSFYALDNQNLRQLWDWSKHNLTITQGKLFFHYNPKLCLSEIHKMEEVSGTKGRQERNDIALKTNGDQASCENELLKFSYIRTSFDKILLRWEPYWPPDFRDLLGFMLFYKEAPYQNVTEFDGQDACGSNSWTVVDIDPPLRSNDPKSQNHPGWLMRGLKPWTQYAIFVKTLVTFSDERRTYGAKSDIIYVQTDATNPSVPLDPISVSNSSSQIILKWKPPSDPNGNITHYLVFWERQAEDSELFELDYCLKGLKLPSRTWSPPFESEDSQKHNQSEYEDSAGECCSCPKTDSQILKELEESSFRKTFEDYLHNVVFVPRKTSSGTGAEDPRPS
Sequence (P06213 763-1382 limits assumed): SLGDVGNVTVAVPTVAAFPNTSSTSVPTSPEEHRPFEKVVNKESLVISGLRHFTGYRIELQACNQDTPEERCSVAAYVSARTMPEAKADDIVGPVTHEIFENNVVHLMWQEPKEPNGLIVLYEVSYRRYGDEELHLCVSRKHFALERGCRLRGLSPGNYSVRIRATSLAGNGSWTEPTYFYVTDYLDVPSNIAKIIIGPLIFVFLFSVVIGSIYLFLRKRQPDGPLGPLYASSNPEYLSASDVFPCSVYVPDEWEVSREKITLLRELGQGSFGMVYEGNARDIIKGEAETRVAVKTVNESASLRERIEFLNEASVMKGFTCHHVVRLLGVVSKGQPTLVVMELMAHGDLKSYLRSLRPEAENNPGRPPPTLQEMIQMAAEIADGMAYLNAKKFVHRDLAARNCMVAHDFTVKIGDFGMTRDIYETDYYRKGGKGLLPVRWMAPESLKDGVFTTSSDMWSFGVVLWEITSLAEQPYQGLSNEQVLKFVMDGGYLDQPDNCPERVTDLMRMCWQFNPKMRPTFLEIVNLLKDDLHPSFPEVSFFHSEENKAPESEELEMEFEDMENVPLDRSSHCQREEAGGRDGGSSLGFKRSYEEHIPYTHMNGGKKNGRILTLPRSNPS
Conditions: at 0.1 µM

[
  {
    "Smiles Code": "CC(=O)NCc1cccc(C#Cc2cncnc2Nc2ccc(OCc3cccc(F)c3)c(Cl)c2)c1",
    "inhibition / %": 2.9
  },
  {
    "Smiles Code": "COc1cc(Nc2nccc(Nc3ccc4c(C)n[nH]c4c3)n2)cc(OC)c1OC",
    "inhibition / %": 13.1
  },
  {
    "Smiles Code": "O=C(Nc1n[nH]c2cc(-c3ccc(F)cc3)ccc12)C1CC1",
    "inhibition / %": 3.21
  },
  {
    "Smiles Code": "CC(=O)Nc1cccc(C#Cc2cncnc2Nc2ccc(OCc3cccc(F)c3)c(Cl)c2)c1",
    "inhibition / %": 3.44
  },
  {
    "Smiles Code": "FC(F)(F)c1cccc(-c2nn3ncccc3c2-c2ccnc(Nc3ccc4c(c3)OCCO4)n2)c1",
    "inhibition / %": -1.37
  },
  {
    "Smiles Code": "NS(=O)(=O)c1ccc(N/N=C2\\C(=O)Nc3ccc4ncccc4c32)cc1",
    "inhibition / %": 5.75
  },
  {
    "Smiles Code": "CCn1c(-c2nonc2N)nc2c(C#CC(C)(C)O)nc(OC[C@H](N)c3ccccc3)cc21",
    "inhibition / %": 7.87
  }
]
